Here the recorded growth inhibition is given for each entry.
Assay: NCI Yeast Anticancer Drug Screen. Data for the bub3 strain (AID 167)
Conditions: S. cerevisiae bub3 mutant strain, at 5.0 µM (retest, dose inferred, filed as 0.5), hits give high values
The panel holds about 79,000 compounds, 15% with a hit somewhere; the sample as a whole holds those more often.
Test Readout: growth inhibition (%)

>>> observed_measurement("O=C(NO)C(=O)Nc1cc(Cl)ccc1Cl")
-28
>>> observed_measurement("CCC(CO)Nc1nc2ccc(Br)cc2c2ccccc12 (stereo unspecified)")
2
>>> observed_measurement("C=CCSc1nc2ccc(N3C(=O)C=CC3=O)cc2s1")
27
>>> observed_measurement("CC(C)C(Sc1nc(-c2ccccc2)c(-c2ccccc2)[nH]1)C(=O)NN (stereo unspecified)")
29
>>> observed_measurement("CCn1c(O)c(C=Nc2ccccc2)s/c1=N/Nc1nc(-c2ccc(O)c(O)c2)cs1")
-7
>>> observed_measurement("O=[N+]([O-])c1cc(CNCCO)c(O)c2ncccc12")
99

---

Test: NCI Yeast Anticancer Drug Screen. Data for the mec2-1 strain (AID 157)
Settings: S. cerevisiae mec2-1 strain, at 5.0 µM (retest, dose inferred, filed as 0.5), hits give high values
This is part of a sample that, as a whole, favours compounds with a hit. Of some 79,000 tested, about 15% had one in any assay.
Threshold rule: growth inhibition greater than or equal to 30% is true (1); below that, false (0).

>>> label_class("CC(C)(C)NC(=S)N/N=C/c1cc(Cl)cc(Cl)c1O")
"true (1)"
>>> label_class("O=C(CBr)N1c2ccccc2Sc2ccc3ccccc3c21")
"true (1)"
>>> label_class("CC(CCC(=O)O)(Nc1ccc([N+](=O)[O-])cc1[N+](=O)[O-])C(=O)O (stereo unspecified)")
"true (1)"
>>> label_class("CCC(C)(C)c1ccc(OC(=O)C(C)OC(C)=O)cc1 (stereo unspecified)")
"false (0)"
>>> label_class("CCOC(C)(OCC)C(N)c1ccccc1 (stereo unspecified)")
"false (0)"
>>> label_class("CCCCCCCCCCOC1C(C(O)CNCCCN(C)C)OC2OC3(CCCCC3)OC21 (stereo unspecified)")
"false (0)"
>>> label_class("c1ccc(N=c2sc3ccccc3sc2=Nc2ccccc2)cc1")
"true (1)"
>>> label_class("O=C(O)C1CCc2ccc3ccccc3c2C1c1cccc2ccccc12 (stereo unspecified)")
"true (1)"
>>> label_class("CCN(CC)c1ccc(/C=C2/C[N+](C)(C)C/C(=C/c3ccc(N(CC)CC)cc3)C2=O)cc1")
"false (0)"
>>> label_class("Nc1nc(-c2cc3cc(Cl)ccc3o2)cs1")
"true (1)"
>>> label_class("COc1cccc2c1S(=O)(=O)C(c1ccccc1)=CC2=O")
"true (1)"

---

Test: NCI Yeast Anticancer Drug Screen. Data for the bub3 strain (AID 167)
Settings: S. cerevisiae bub3 mutant strain, at 5.0 µM (retest, dose inferred, filed as 0.5), hits give high values
Compounds without any hit were thinned out: in the full panel of roughly 79,000, 15% have a hit. Calls of active or inactive are those of the source. Rule as the data show it: active = growth inhibition above about 70%; inactive = the rest.
Test Readout: growth inhibition

>>> observed_measurement("O=C(C[N+]12CN3CN(CN(C3)C1)C2)c1ccc(Cl)cc1Cl")
"0% (inactive)"
>>> observed_measurement("Cc1noc(NS(=O)(=O)c2ccc(NC(=S)/N=C/c3c(O)[nH]c(=O)[nH]c3=O)cc2)c1C")
"4% (inactive)"
>>> observed_measurement("NC(=O)C12OC3CC(CC(C3)O1)O2")
"2% (inactive)"
>>> observed_measurement("CCn1c2ccccc2n2c(=O)cc(-c3ccccc3)c(C#N)c12")
"7% (inactive)"
>>> observed_measurement("CCOc1nc(N)nc(C)c1N=Nc1ccc(Cl)cc1")
"-1% (inactive)"
>>> observed_measurement("CCCCCC1OC1CC1OC1CCCCCCCC(=O)OC (stereo unspecified)")
"-1% (inactive)"
>>> observed_measurement("N=C(N)SCc1nc(-c2ccc(Cl)cc2)no1")
"-4% (inactive)"
>>> observed_measurement("O=C(Nc1nc2ccc([N+](=O)[O-])cc2s1)C(=O)C(C1OC(=O)c2ccccc21)[N+](=O)[O-] (stereo unspecified)")
"4% (inactive)"
>>> observed_measurement("CCOC(=O)c1cc(C)ccc1-c1ccc(C)cc1C(=O)OCC")
"6% (inactive)"
>>> observed_measurement("COc1c2c(c(C)c3ccc4ccccc4c13)CCN=C2")
"10% (inactive)"
>>> observed_measurement("C[N+]1(C)CCN(CCCN2c3ccccc3Sc3ccccc32)CC1")
"5% (inactive)"

FYI, the data here is from PubChem BioAssay (NCI).
